The reported measurements were obtained from patent US20170281758A1.

tested on: SKBR-3 (Her2+++); settings: anti-HER2 IgG ADC, treatment 5 days, 50% cell growth inhibition
# reported pEC50; entries follow
// pEC50 here means minus log10 of the molar concentration (mol/L)

These recorded examples may help you get a feel for the data.
INSERT INTO results (molecule, test_system, observed_measurement) VALUES
  ('CCN(C(=O)CNC(=O)OCc1ccc(NC(=O)[C@H](C)NC(=O)[C@@H](NC(=O)CCCC(=O)O)C(C)C)cc1)C1COC(OC2C(O[C@H]3C#C/C=C\C#C[C@]4(O)CC(=O)C(NC(=O)OC)=C3/C4=C\CSSC(C)CCC(=O)NCC(O)CO)OC(C)C(NOC3CC(O)C(SC(=O)c4c(C)c(I)c(OC5OC(C)C(O)C(OC)C5O)c(OC)c4OC)C(C)O3)C2O)CC1OC (stereo partly shown) [Compound 37]', 'SKBR-3 (Her2+++)', 9.63),
  ('CCN(C(=O)CNC(=O)OCc1ccc(NC(=O)[C@H](C)NC(=O)[C@@H](NC(=O)CCCC(=O)O)C(C)C)cc1)C1COC(OC2C(O[C@H]3C#C/C=C\C#C[C@]4(O)CC(=O)C(NC(=O)OC)=C3/C4=C\CSSC(C)CCC(=O)NC3C(O)OC(CO)C(O)C3O)OC(C)C(NOC3CC(O)C(SC(=O)c4c(C)c(I)c(OC5OC(C)C(O)C(OC)C5O)c(OC)c4OC)C(C)O3)C2O)CC1OC (stereo partly shown) [Compound 40]', 'SKBR-3 (Her2+++)', 9.18),
  ('CCN(C(=O)CNC(=O)OCc1ccc(NC(=O)[C@H](CC(N)=O)NC(=O)[C@H](C)NC(=O)[C@H](C)NC(=O)CCC(=O)N2CCC(C(=O)O)CC2)cc1)C1COC(OC2C(O[C@H]3C#C/C=C\C#C[C@]4(O)CC(=O)C(NC(=O)OC)=C3/C4=C\CSSC(C)(C)CC(=O)NCC(O)CO)OC(C)C(NOC3CC(O)C(SC(=O)c4c(C)c(I)c(OC5OC(C)C(O)C(OC)C5O)c(OC)c4OC)C(C)O3)C2O)CC1OC (stereo partly shown) [Compound 15]', 'SKBR-3 (Her2+++)', 9.77);

Please look at the following molecule next.
Supply reported pEC50 belonging to this molecule: CCN(C(=O)CNC(=O)OCc1ccc(NC(=O)[C@H](C)NC(=O)[C@@H](NC(=O)CCCn2nnc(CBr)c2CBr)C(C)C)cc1)C1COC(OC2C(O[C@H]3C#C/C=C\C#C[C@]4(O)CC(=O)C(NC(=O)OC)=C3/C4=C\CSSC(C)(C)CCC(=O)NCCOCCOCCOCCO)OC(C)C(NOC3CC(O)C(SC(=O)c4c(C)c(I)c(OC5OC(C)C(O)C(OC)C5O)c(OC)c4OC)C(C)O3)C2O)CC1OC (stereo partly shown) [Compound 30]
10.19
